So I've got a bunch of binders here, and I need their Intensity (%) values.
system.name: T1, biotin-labelled EZH2 protein (UniProt Q15910 1-746, limits assumed, biotin label (EZ-link NHS-PEO4-Biotinylation kit))
T1 construct: Probe in solution (1 ug/ml) on the KDM2B peptide microarray; also called NHS-PEO4-Biotinylation-labelled EZH2 protein; recombinant protein
assay.procedure: KDM2B peptide array probed with biotin-EZH2 1 ug/ml, SA-HRP/ECL; Remark: noise;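 note: 100% is the highest background-corrected spot optical density on the membrane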
Lab book: enter the figure in %, no units written.

**Q:** Entry AMEGKDFNYEYVQRE [peptide 18] has what Intensity (%)?
**A:** 0

**Q:** Entry LNGTPRELRHQLGPS [peptide 201] has what Intensity (%)?
**A:** 0.18

**Q:** Entry GKTGKQKRGPGFKYA [peptide 146] has what Intensity (%)?
**A:** 0.01

**Q:** Entry CEQFIAEMSVSVQFG [peptide 263] has what Intensity (%)?
**A:** 0.05
